# Procedure details: CREB reporter modulators without forskolin, primary screen, cell-based, PC12, CRE-LacZ reporter, unstimulated (AID 1145)
# Reported conditions: no forskolin, luminescence, 4.5 h, higher = more signal, called active from +8 up or from −8 down
Measured quantity: z-score
Output spec: single numeric token, no unit.

- Compound structure: "CCc1cccc(NC(=O)O[C@H]2[C@H](OC(=O)Nc3ccccc3)[C@@H](OC(=O)Nc3ccccc3)[C@@H](OC)O[C@@H]2CO)c1"
  Assay result: 0.344

Return z-score (reported value) for this compound: O=C1O[C@H](c2ccccc2)[C@H](c2ccccc2)N2[C@H]1[C@@H](C(=O)NC[C@H](O)c1ccccc1)[C@]1(C(=O)Nc3ccc(C#CC4(O)CCCCCC4)cc31)[C@H]2c1ccc(OCCO)cc1
-0.231

Return z-score (reported value) for this compound: CC(C)NC(=O)[C@@]1(Cc2ccccc2I)c2ccccc2C(=O)N(C2CCCCC2)[C@H]1c1ccc(CO)cc1
0.531
